A collection of binders and their measured % inhibition of ligand receptor interaction
study system: human TNFSF9 (R&D Systems; #2295-4L-025/CF) (human) (UniProt P41273)
Sequence (P41273 71-254 limits assumed): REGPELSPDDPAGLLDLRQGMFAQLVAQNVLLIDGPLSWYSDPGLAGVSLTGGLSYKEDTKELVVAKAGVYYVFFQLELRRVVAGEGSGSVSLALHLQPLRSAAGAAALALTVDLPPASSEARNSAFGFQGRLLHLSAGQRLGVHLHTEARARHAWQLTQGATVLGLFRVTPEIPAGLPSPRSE
experimental protocol: MSD ELISA: TNFSF9 + 1 ug/mL antibody, binding to coated TNFRSF9
reported property: % inhibition of ligand receptor interaction (%)

{"binder": "SC113.187 (antibody, V domains shown) VH: QVQLQQSGAELAKPGASVKMSCKASGYTFTSYWMYWVKQRPGQGLEWIGYINPSTGYTEYNQKFKDKATLTADKSSSTAYMQLNSLTSEDSAVYYCARSGYYGSSSLAYWGQGTLVTVSA VL: NIVLTQSPASLAVSLGQRATISCRASESVDSYGNSFMHWYQQKPGQPPKLLIYLASNLESGVPARFSGSGSRTDFTLTIDPVEADDAATYYCQQNNEDPWTFGGGTKLEIK", "reported": -2}
{"binder": "SC113.119 (antibody, V domains shown) VH: QVQLQQSGTELARPGASVRLSCKASGYTFTSYGLSWVKQRTGQGLEWIGEIFPGSGNSNYNENFKGKATLTADKSSSTAYMQVSSLSSEDSVVYFCARGGFDFWGQGTSLTVSS VL: DIQMTQSPSSLSASLGERVSLTCRASQEITGYLSWLQQKPDGTIKRLIYAASTLDSGVPKRFSGSRSGSDYSLTISSLESEDFADYYCLQYARYPPTFGGGTKLEIK", "reported": -8}
{"binder": "SC113.190 (antibody, V domains shown) VH: QVQLQQPGAELVKPGASVKLSCKASGYTFTTYYMYWVKQRPGQGLEWIGGINPSNGDTDFNEKFKSKATLTVDKSSSTVYMQLSSLTPEDSAVYFCTSAGYTSWFAYWGQGTLVTVSA VL: QIVLTQSPALMSASPGEKVTMTCSASSSVSYMNWYQQKPRSSPKPWIYLTSHLASGVPARFSGSGSGTSYSLTISSMEAEDAATYYCQQWSSKPPTFGSGTKLEIK", "reported": 8}
{"binder": "SC113.118 (antibody, V domains shown) VH: QVQLQQSGTELARPGASVKLSCKASGYTFTSYGLSWVKQRTGQGLEWIGEIFPGSGNSNYNENFKGKATLTADKSSSTAYMQLSSLTSDDSVVYFCARGGFDYWGQGTTLTVSS VL: DIQMTQSPSSLSASLGERVSLTCRASQEISGFLSWLQQKPDGTIKRLIYAASTLDSGVPKRFSGSRSGSDYSLTISSLESEDFADYYCLQYARYPPTFGGGTKLEIK", "reported": 3}
